Read-out: Vascular cell adhesion molecule 1 (VCAM1), VCAM1 (gene 7412)
PROTOCOL DETAILS: BSK_4H_VCAM1: BioMAP Diversity Plus: 4H Assay for Vascular cell adhesion molecule 1 (VCAM1) Biomarker Activity (AID 2283033)
RECORDED CONDITIONS: primary human endothelial cells (HUVEC); actives raise or lower the signal
Activity calls are given as the source filed them. The calls were made as follows: active = hit-call score of the fitted dose curve at least 0.9, where 1 is the maximum; inactive = score below 0.9.
Possible outcomes: active, inactive

{"columns": ["COMPOUND", "CLASS NAME"],
 "data": [
  ["CCC[Si](OC(C)=O)(OC(C)=O)OC(C)=O", "inactive"],
  ["CC(C)CC(=O)CC(C)CC(C)C (stereo not drawn)", "active"],
  ["O=C(C(=O)c1ccccc1)c1ccccc1", "inactive"]
]}
